Test system: OVCAR-8
Assay: NCI tumour cell line growth inhibition, 48 h
The source made the active and inactive calls. Cut-off read from the data, not from the text of the source: active = GI50 up to about 1.1 µM and inactive = higher.
Parameter GI50: see the listing below.
MEASURED_METRIC: GI50

* C#CCOC(=O)C(N)CSSCC(N)C(=O)O (stereo not drawn) | > 100 µM (inactive)
* O=C(O)C12C3C4(C(=O)O)C1C1(C(=O)O)C2C3(C(=O)O)C41 (stereo not drawn) | > 100 µM (inactive)
* Cc1ccc(SC[C@@]2(C(F)F)NC(=O)NC2=O)cc1 | > 100 µM (inactive)
* COc1ccc(OC)c(CC(C)N)c1 (stereo not drawn) | > 100 µM (inactive)
* O=C1/C(=C\c2ccc(Cl)cc2)N=C(c2ccccc2)N1n1c(=O)cn[nH]c1=S | 21.8 µM (inactive)
* NC(=O)CCCC(NCc1c2ccccc2nc2ccccc12)C(=O)O (stereo not drawn) | 42.7 µM (inactive)
* CCNC(=O)CCN(C(=O)O)S(=O)(=O)c1ccc(NC(=O)c2ccccc2)cc1 | > 100 µM (inactive)
* CCCCOCc1cc(CN2CCN(C)CC2)c(O)c2ncccc12 | 17.8 µM (inactive)
* O=C(O)CC[P+](c1ccccc1)(c1ccccc1)c1ccccc1 | 43.5 µM (inactive)
* CCOC(=O)C1(C/C=C\CBr)CCCCCCC1=O (stereo not drawn) | > 100 µM (inactive)
* C=C1CC[C@H]2C(=O)OC(c3ccoc3)C[C@]2(C)C/C=C\C=C/1C(=O)OC (stereo partly drawn) | > 25 µM (inactive)
* CC1=CC(=O)c2c(O)cccc2C1=O | 1.69 µM (inactive)
* Cc1cc(N(CCC#N)CCC#N)ccc1/C=C/C(=O)Nc1ccccc1Cl | > 100 µM (inactive)
* Cc1c(C(=O)C/C(=N/NC(=O)CC#N)C(N)=O)[n+]([O-])c2ccccc2[n+]1[O-] | 34.2 µM (inactive)
* COc1cc(-c2c3c([nH]c(=O)c2C#N)-c2cc([N+](=O)[O-])ccc2CCC3)cc(OC)c1OC | 17.8 µM (inactive)
* Nc1ncnc2c1ncn2C1OC(COC2C(CO)OC(OC(C(=O)O)C(O)C(OP(=O)(O)O)C(O)C(=O)O)C(O)C2O)C(O)C1O (stereo not drawn) | > 100 µM (inactive)
* O=C1OC(c2ccccc2)=N/C1=C\c1ccc([N+](=O)[O-])cc1 | 11.9 µM (inactive)
* CSc1[nH]cnc1C(N)=S | > 100 µM (inactive)
* Cc1[nH]c2ccccc2c1-c1cc(-c2cc(-c3c(C)[nH]c4ccccc34)on2)no1 | > 100 µM (inactive)
* c1ccc2cc3[s+]snc3cc2c1 | > 100 µM (inactive)
* O=C(O)c1cc2ccc3ccccc3c2oc1=O | > 100 µM (inactive)
* N#Cc1ccc(/C=C(/C(=O)c2ccccc2)c2ccccc2)cc1 | 6.41 µM (inactive)
* COc1ccc(OC(C)C(=O)O)c2c(=O)ccccc12 (stereo not drawn) | > 100 µM (inactive)

---

System: SF-268
Experiment: NCI tumour cell line growth inhibition, 48 h
Activity calls are given as the source filed them. Rule as the data show it: active = GI50 up to about 1.1 µM and inactive = higher.
MEASURED_METRIC: GI50

• COc1cc(CC2c3cc(OC)c(OC)cc3CCN2C)c(Oc2cc3c(cc2OC)-c2c(OC)c(OC)c(OC)c4c2C(C3)N(C)CC4)cc1OC (stereo not given) = 15 µM (inactive)
• OC(Cc1ccc2ccccc2n1)(C(F)(F)Cl)C(F)(F)Cl = > 10 µM (inactive)
• Cc1cccc(=O)c([O-])c1.Cc1cccc(=O)c([O-])c1.[Bi+3].[Cl-] = 6.61 µM (inactive)
• C=C1C(=O)OC2/C=C(\C)C(O)CC(O)C(C)(O)CC(OC(=O)/C(C)=C/C)C12 (stereo not given) = 42.3 µM (inactive)
• CC(N)(CC(O)(C(F)(F)Cl)C(F)(F)Cl)C(=O)O (stereo not given) = > 10 µM (inactive)

---

Tested on: SNB-19
Experiment: NCI tumour cell line growth inhibition, 48 h
Activity calls are given as the source filed them. No stated cut-off is given here; in the data, active = GI50 up to about 1.1 µM and inactive = higher.
Parameter GI50: see the listing below.
MEASURED_METRIC: GI50

- COC(=O)C(=O)C(C(=O)C(=O)Nc1cc(C)ccc1C)c1nc2ccccc2nc1O (configuration not stated): > 100 µM (inactive)
- C[S+]=c1sc2ccccc2s1: > 100 µM (inactive)
- Cc1nc(C)c(N2CCN(C(=O)NC(CCC(=O)O)C(=O)O)CC2)c(O)n1 (configuration not stated): > 100 µM (inactive)
- CCCC(O)C(NC(=O)CCl)C(=O)O (configuration not stated): > 100 µM (inactive)
- CCOC(=O)/C=C/C1(CCOC(C)=O)CCCCC1: > 10 µM (inactive)
- O=C(c1cc(Cl)cc(Cl)c1)N(C(=O)N1CCN(c2ccccc2)CC1)c1ccccc1: 53.3 µM (inactive)
- O=C(NC(OCc1ccccc1)(C(F)(F)F)C(F)(F)F)OCc1ccccc1: 15.8 µM (inactive)
- C=CC1(C)OC2(CCN(C(=O)OCC)CC2)OC1C (configuration not stated): > 100 µM (inactive)
- COc1ccc(C(=O)C(C(=O)CC(=O)Nc2cccc(C(F)(F)F)c2)c2ccc(OC)cc2)cc1 (configuration not stated): > 100 µM (inactive)
- O=C(Sc1c(-c2ccccc2)c(=O)n(-c2ccccc2)c(=S)n1-c1ccccc1)c1ccccc1: > 100 µM (inactive)
- O=C1CSC(c2ccc(Cl)cc2)N1c1ccc(Oc2ccc(Cl)cc2)c(Cl)c1 (configuration not stated): 15.6 µM (inactive)
- COC1OC(CO)C(O)C(NC(=O)N(C)N=O)C1O (configuration not stated): > 100 µM (inactive)
- Cc1cc(N(CCC#N)CCC#N)ccc1/C=C/C(=O)Nc1ccccc1Cl: > 100 µM (inactive)
- COc1cc2c(cc1OCCCCN1C(=O)c3cccc4cccc(c34)C1=O)N=C[C@@H]1CCCN1C2=O: 6.17 µM (inactive)
- CN(C)CCNC(=O)c1cccc2nc3cc(Cl)ccc3nc12: 3.4 µM (inactive)
- CCO[C@@H]1CCC([S+]([O-])c2ccc(C)cc2)=CO1 (some centres not stated): > 100 µM (inactive)
- COc1ccc(CNC(=O)NCn2cc(-c3ccccc3)nn2)cc1: > 100 µM (inactive)
- Brc1cccc(Nc2nc(-c3cccs3)nc3ccc(Br)cc23)c1: 31.1 µM (inactive)
- CC1(C)C=C(/C=C2/N(S(=O)(=O)C(F)(F)F)C(/C=C3/N(S(=O)(=O)C(F)(F)F)C(C)(C#N)CC3(C)C)=CC2(C)C)N=C1/C=C1/CC(C)(C)C(=O)N1 (configuration not stated): 52.5 µM (inactive)
- CC1(c2nc3ccccc3[nH]2)CCC(C(=O)O)C(C)(C)O1 (configuration not stated): > 100 µM (inactive)
- CC(N)(CC(O)(C(F)(F)Cl)C(F)(F)Cl)C(=O)O (configuration not stated): > 10 µM (inactive)
- CC1=N/C(=C\c2cccc3ccccc23)C(=O)O1: > 100 µM (inactive)

---

Tested on: HT-29
Test: NCI tumour cell line growth inhibition, 48 h
Calls of active or inactive are those of the source. Rule as the data show it: active = GI50 up to about 1.1 µM and inactive = higher.
Possible outcomes: TRUE = active, FALSE = inactive

- CN(C)CCCC1c2ccccc2Oc2ccc(C(F)(F)F)cc21 (stereo unspecified): FALSE
- COc1ccc(-c2cc(O)c3cc4c(cc3n2)OCO4)c(OC)c1OC: FALSE
- CN(C)/C=N\c1cccc2cnccc12: FALSE
- O=C(CC1Sc2ccccc2NC1=O)Nc1ccc([N+](=O)[O-])cc1[N+](=O)[O-] (stereo unspecified): FALSE
- CC(=O)OCC1OC(n2c(C#N)cc(=O)[nH]c2=O)CC1OC(C)=O (stereo unspecified): FALSE
- CN(C)C(=S)/N=c1\ss/c(=N\S(=O)(=O)c2ccccc2)n1C: FALSE
- Cc1ccc(S(=O)(=O)NC(=O)NCc2ccc(S(N)(=O)=O)cc2)cc1: FALSE
- O=C(NCCc1ccccc1)C1C(=O)C(=O)N(CCc2ccccc2)C1=O (stereo unspecified): FALSE
- NC(=O)c1ncn2c1NCC1OC2C(O)C1O (stereo unspecified): FALSE
- COc1ccc2c(c1)c1c(C)c3cnccc3c(C)c1n2CCCN: TRUE
- Cc1cc2c(cc1Cl)SC(c1ccccc1)C(=O)NS2(=O)=O (stereo unspecified): FALSE

---

System: HOP-62
Assay: NCI tumour cell line growth inhibition, 48 h
Active and inactive are the calls of the source. No stated cut-off is given here; in the data, active = GI50 up to about 1.1 µM and inactive = higher.
Possible outcomes: active, inactive

• CN1C(=O)C2C3C=C4c5ccccc5N(c5ccccc5)C4(C2C1=O)[C@H]1C(=O)N(C)C(=O)[C@@H]31 (stereo partly drawn) = inactive
• CN(C)CCCNc1ccc2ncn3c4ccc(O)cc4c(=O)c1c23 = active
• C#CCOC(=O)C(N)CSSCC(N)C(=O)O (stereo not drawn) = inactive
• CC1(C)C(CCO)CC1n1ccc(=O)[nH]c1=O (stereo not drawn) = inactive
• Cc1ccc(S(=O)(=O)N/N=C2\C(=O)C3CC2C(Cl)C3Cl)cc1 (stereo not drawn) = inactive
• Nc1c(-c2nc3ccccc3[nH]2)sc(=S)n1-c1ccc(Cl)cc1 = inactive
• COC(=O)C1CC2CC(=NNC(N)=O)CC2C1 (stereo not drawn) = inactive
• O=C1CC2(CCC3=C(O2)c2ccccc2NC(=O)C3)C(=O)c2ccccc2N1 (stereo not drawn) = inactive
• CCCc1ccc(NCc2cc(OC)c(OC)c(OC)c2)cc1 = inactive
• COc1ccc(C(=O)C(C(=O)C(=O)Nc2nc3ccc(OC)cc3s2)c2ccc(OC)cc2)cc1 (stereo not drawn) = inactive
• COc1ccc(C(=O)NCCN(C)C)c2nc3ccccc3nc12 = inactive
• COc1ccc(C2OC[C@H]3O[C@@H](OCc4ccccc4)[C@H](O)[C@@H](O)[C@@H]3O2)cc1 (stereo partly drawn) = inactive
• CCOC(=O)[C@@H]1ON2O[C@H](OC3CCCCC3c3ccccc3)C[C@H]3OC(=O)[C@@H]1C32 (stereo partly drawn) = inactive
• CN(CCC#N)c1ccc(/C=C2\SC(=S)NC2=O)cc1 = inactive
• C=CCOCn1cc(F)c(=O)[nH]c1=O = inactive
• CN(C)C(=S)/N=c1\ss/c(=N\S(=O)(=O)c2ccccc2)n1C = inactive
• NS(=O)(=O)c1ccc(/C=C/c2ccc(O)c(O)c2)cc1 = inactive
• Cc1nc(O)nc(N/N=C/c2ccc(Cl)c(Cl)c2)c1C(=O)Nc1ccc(Cl)c(Cl)c1 = inactive
• Nc1cccc(C(=O)/C=C/c2ccccc2O)c1 = inactive
• O=S(=O)(O)c1ccc2c(/N=N/c3ccccc3)c(O)c(S(=O)(=O)O)cc2c1 = inactive
• CC(=O)c1sc2[n+](c1C)C(=O)/C(=C\c1ccccc1Cl)S2 = inactive
• CCCCOCc1cc(CN2CCN(C)CC2)c(O)c2ncccc12 = inactive
• C=C1CC[C@H]2C(=O)OC(c3ccoc3)C[C@]2(C)C/C=C\C=C/1C(=O)OC (stereo partly drawn) = inactive
• Nc1nc(Cl)cc(NCC2(O)CC(CO)C2)n1 (stereo not drawn) = inactive
• O=C(NC(OCc1ccccc1)(C(F)(F)F)C(F)(F)F)OCc1ccccc1 = inactive
• COC(=O)c1cc(C)ccc1/C=C1\Cc2cc(C)c(C)cc2C1=O = inactive
• CN(C)/C=N\c1cccc2cnccc12 = inactive
• Cc1cn([C@H]2CN(O)C[C@@H](CO)O2)c(=O)[nH]c1=O = inactive
• CSc1[nH]cnc1C(N)=S = inactive
• Cc1[nH]c2ccccc2c1-c1cc(-c2cc(-c3c(C)[nH]c4ccccc34)on2)no1 = inactive
• NNC(=O)CSc1nc2ccc(I)cc2c(=O)n1Cc1ccccc1 = inactive
• N#Cc1c(-c2ccc(Cl)cc2)c2c([nH]c1=O)-c1ccccc1SC2 = inactive
• O=C(O)CCC(=O)c1ccc(Cl)cc1 = inactive
• COc1ccc(N2C(=O)[C@@H](N=[N+]=[N-])[C@@H]2[C@H]2COC(C)(C)O2)cc1 = inactive
• CC(N)(CC(O)(C(F)(F)Cl)C(F)(F)Cl)C(=O)O (stereo not drawn) = inactive
• CCC12C=C(C(=O)OC)N3c4ccccc4C4CCN(CCC1)C2C43 (stereo not drawn) = inactive
• CCC(C(=O)C(=O)C(CC)P1(=O)OC(C)(C)CN1C(C)(C)C)P1(=O)OC(C)(C)CN1C(C)(C)C (stereo not drawn) = inactive
• COC(=O)/C=C(/C(=O)OC)c1cc2ccc3c([nH]c4ccccc43)c(C)c-2c1 = inactive
• COc1ccc(CNC(=O)NCn2cc(-c3ccccc3)nn2)cc1 = inactive
• COC(=O)C1=C(O)c2cc(OC)c(OC)c(OC)c2[C@H](c2cc(OC)c(OC)c(OC)c2)C1C(=O)OC (stereo partly drawn) = inactive
• Cc1ccc(N2C(N)=C(C#N)C(C#N)(C#N)C2c2ccccc2)cc1 (stereo not drawn) = inactive
• COC(=O)C1=C(C(=O)OC)C(C(=O)c2ccc(Br)cc2)N2N=C(c3ccc(Cl)cc3)C=CC12 (stereo not drawn) = inactive
• O=C1Nc2ccccc2C1Cc1ccc([N+](=O)[O-])cc1 (stereo not drawn) = inactive
